Give measured Corn plant response rating for each item. Keep answers brief.
- Tested on: corn
- experimentalProtocol: Test A preemergence
- Format: in vivo, Zea mays
- experimentalContext: preemergence, 125 g ai/ha; visual injury, 0 to 100 scale, approx. 10 days
When you answer, write just the number.

Form field: reported Corn plant response rating of `O=C(NCC(F)(F)F)c1cc(CCCl)n(Cc2ccnc(C(F)(F)F)c2)n1`
50

Please look up its Corn plant response rating: `CCc1cc(C(=O)NC(C)C)nn1Cc1ccnc(C(F)(F)F)c1`
30

# input compound: `CNC(=O)c1cc(C)n(Cc2cccc(OC(F)(F)F)c2)n1` ; wanted: its Corn plant response rating
0

Corn plant response rating lookup needed for `CCc1cc(C(=O)NCC(F)(F)F)nn1Cc1cc(C(F)(F)F)nn1CC` , thanks.
0

Query (compound): `CCc1cc(C(=O)NCC(F)(F)F)nn1Cc1ccnc(C(F)(F)F)c1` ; field requested: Corn plant response rating
60

Looking for the measured Corn plant response rating of `Cc1cc(C(=O)NCC(F)(F)F)nn1Cc1ccc(F)c(C(F)(F)F)c1` , can you help?
0

Look at this compound and give its reported Corn plant response rating. `CCOc1cc(C(=O)NCC(F)(F)F)nn1Cc1ccnc(C(F)(F)F)c1`
60

Corn plant response rating lookup needed for `CCCNC(=O)c1cc(C)n(Oc2ccnc(C(F)(F)F)c2)n1` , thanks.
0

// returns reported Corn plant response rating for input `CCc1cc(-c2ccc(F)cc2)nn1Cc1ccnc(C(F)(F)F)c1`
0

* * *

For each of the compounds below, state its Morningglory plant response rating.
- Test system: morningglory
- experimentalProtocol: Test C postemergence
- Type: in vivo, Ipomoea coccinea
- experimentalContext: postemergence, 62 g ai/ha; scale 0 to 100
Could you respond with only the numeric value?

Can you share its Morningglory plant response rating? I mean this compound: `CCc1cc(C(=O)NC2CC2)nn1Cc1ccnc(OC(F)F)c1`
50

Given `CCCNC(=O)c1cc(CC)n(Cc2ccnc(OC(F)F)c2)n1` , state its recorded Morningglory plant response rating.
75

Endpoint output: Morningglory plant response rating of `CCc1cc(C(=O)NOC(C)C)nn1Cc1ccnc(C(F)(F)F)c1` . Value?
65

I would be grateful if you could share the reported Morningglory plant response rating for `CCc1cc(C(=O)NCC(F)(F)F)nn1Cc1cc(OC(F)F)nn1C` .
40

Can you look up the measured Morningglory plant response rating of `CCOc1cc(C(=O)NC(C)C)nn1Cc1ccnc(C(F)(F)F)c1` for me?
90

Which Morningglory plant response rating value is on record for `CCc1cc(C(=O)NCC(F)(F)F)nn1Cc1ccnc(C(F)(F)F)c1` ?
80

* * *

- System: velvetleaf
- experimentalProtocol: Test A postemergence
- Format: in vivo, Abutilon theophrasti
- experimentalContext: Postemergence, 500 g ai/ha; visual rating after approx. 10 days, 0 to 100 scale (0 no effect, 100 complete control)
Please use yes (1) whenever Velvetleaf plant response rating is not below 90, and no (0) whenever it is.

Threshold query (Velvetleaf plant response rating >= 90) on `CNC(=O)c1cc(C)n(Cc2cccc(OC(F)(F)F)c2)n1`
no (0)

Check if Velvetleaf plant response rating >= 90 (inclusive). Item: `CCCNC(=O)c1cc(C)n(Oc2ccnc(C(F)(F)F)c2)n1`
no (0)

Check this molecule for Velvetleaf plant response rating at or above 90: `CCCc1cc(C(=O)NCC(F)(F)F)nn1Cc1ccnc(C(F)(F)F)c1`
yes (1)

Can `CCc1cc(C(=O)NOC(C)(C)CC)nn1Cc1cccc(OC(F)(F)F)c1` be said to have Velvetleaf plant response rating at or above 90?
yes (1)

Quick check, Velvetleaf plant response rating >= 90? `Cc1cc(C(=O)NC2CC2)nn1Cc1ccc(F)c(C(F)(F)F)c1`
no (0)

Exam item: decide whether the reported Velvetleaf plant response rating for `CCc1cc(C(=O)NC2CC2)nn1Cc1cc(C(F)(F)F)nn1CC` is at least 90.
no (0)

Textbook exercise: given the entry `CCNC(=O)c1cc(C)n(Cc2cccc(OC(F)(F)F)c2)n1` , state whether its Velvetleaf plant response rating is greater than or equal to 90.
no (0)

hey, is Velvetleaf plant response rating for this one >= 90? `CCCc1cc(C(=O)NCC(F)(F)F)nn1Oc1ccnc(C(F)(F)F)c1`
no (0)

Confirm if Velvetleaf plant response rating reported for the molecule `CCc1cc(C(=O)NC(C)C)nn1Cc1ccnc(C(F)(F)F)c1` is 90 or above.
no (0)

Hello, I need to know if `CCOc1cc(C(=O)NCC(F)(F)F)nn1Cc1ccnc(C(F)(F)F)c1` has measured Velvetleaf plant response rating not below 90. Thanks!
yes (1)

* * *

- Test system: ryegrass, Italian
- experimentalProtocol: Test C postemergence
- Format: in vivo, Lolium multiflorum
- experimentalContext: postemergence, 250 g ai/ha; scale 0 to 100 (0 no effect, 100 complete control)
Provide the recorded Plant response rating, Ryegrass, Italian for the entries that follow.

// query Plant response rating, Ryegrass, Italian value for entry CCc1cc(C(=O)NC2CC2)nn1Cc1ccnc(OC(F)F)c1 [Compound 98]
10

If you can, please state the reported Plant response rating, Ryegrass, Italian value of CCOc1cc(C(=O)NCC(F)(F)F)nn1Cc1ccnc(C(F)(F)F)c1 [Compound 104] .
80

What does the record list as Plant response rating, Ryegrass, Italian for CCc1cc(C(=O)NC2CC2)nn1Cc1ccnc(OCC(F)(F)F)c1 [Compound 200] ?
15

So what's the measured Plant response rating, Ryegrass, Italian for this one? Cc1cc(C(=O)NC(C)C)nn1Cc1ccnc(C(F)(F)F)c1 [Compound 197]
5

Fill in: Plant response rating, Ryegrass, Italian of CCc1cc(C(=O)NCC(F)(F)F)nn1Cc1ccnc(C(F)(F)F)c1 [Compound 78] is ___
35

Look at this compound and give its reported Plant response rating, Ryegrass, Italian. CCNC(=O)c1cc(CC)n(Cc2ccnc(C(F)(F)F)c2)n1 [Compound 196]
5

* * *

- Test system: kochia
- experimentalProtocol: Test C postemergence
- Format: in vivo, Kochia scoparia
- experimentalContext: postemergence, 62 g ai/ha; scale 0 to 100
Please respond with reported Kochia plant response rating for every item in the list.
Give a plain numeric answer without units written out.

Query: Kochia plant response rating; subject: `CCc1cc(C(=O)NC(C)C)nn1Cc1ccnc(C(F)(F)F)c1`
85

# get_value(readout='Kochia plant response rating', item= `CCCNC(=O)c1cc(CCC)n(Cc2cc(C(F)(F)F)nn2C)n1` )
80

Fill blank: measured Kochia plant response rating of the compound `CCc1cc(C(=O)NOC(C)C)nn1Cc1ccnc(C(F)(F)F)c1` is ____.
65

Suppose we examine the compound `CCCc1cc(C(=O)NCC)nn1Cc1ccnc(C(F)(F)F)c1` ; what Kochia plant response rating value has been reported?
70

Kochia plant response rating for `CCc1cc(C(=O)NCC(F)(F)F)nn1Cc1ccnc(C(F)(F)F)c1` ?
90

Query (compound): `Cc1cc(C(=O)NC(C)C)nn1Cc1ccnc(C(F)(F)F)c1` ; field requested: Kochia plant response rating
60

Fill in: Kochia plant response rating of `CCCc1cc(C(=O)NCC)nn1Cc1cc(C(F)(F)F)nn1C` is ___
90

* * *

Field: Oat, Wild plant response rating. Provide a value for each of the molecules that follow.
- System: oat, wild
- experimentalProtocol: Test D postemergence
- Assay type: in vivo, Avena fatua
- experimentalContext: postemergence, 62 g ai/ha; scale 0 to 100
Would you mind answering with just the numeric figure?

Given the entry CCCc1cc(C(=O)NCC(F)(F)F)nn1Cc1ccnc(C(F)(F)F)c1 [Compound 105] , what Oat, Wild plant response rating was observed with oat, wild?
20

Give Oat, Wild plant response rating (oat, wild) of the following molecule: CCc1cc(C(=O)NC(C)C)nn1Cc1ccnc(C(F)(F)F)c1 [Compound 103]
15

Request body: readout Oat, Wild plant response rating, system oat, wild, query CCOc1cc(C(=O)NC(C)C)nn1Cc1ccnc(C(F)(F)F)c1 [Compound 188] . Return the value.
15

Give the reported Oat, Wild plant response rating for CCc1cc(C(=O)NCC(F)(F)F)nn1Cc1ccnc(C(F)(F)F)c1 [Compound 78] (system: oat, wild).
20

* * *

- Tested on: galium
- experimentalProtocol: Test C preemergence
- Type: in vivo, Galium aparine
- experimentalContext: preemergence, 31 g ai/ha; visual rating, scale 0 to 100 (0 no effect, 100 complete control), 13 to 15 days
valueKind: Galium plant response rating
Write the number on its own, no unit after it.

Entry `CCc1cc(C(=O)NCC2CC2)nn1Cc1ccnc(C(F)(F)F)c1` has what Galium plant response rating?
40

Tell me the measured Galium plant response rating of `CCNC(=O)c1cc(CCCl)n(Cc2ccnc(C(F)(F)F)c2)n1` , please.
98

Given the entry `CCCc1cc(C(=O)NOCC)nn1Cc1ccnc(C(F)(F)F)c1` , report its measured Galium plant response rating.
80

Fill blank: measured Galium plant response rating of the molecule `CCCc1cc(C(=O)NCC(F)(F)F)nn1Cc1ccnc(C(F)(F)F)c1` is ____.
100

Data request, read-out Galium plant response rating, for `CCc1cc(C(=O)NCC(F)(F)F)nn1Cc1ccnc(C(F)(F)F)c1`
85
